tested on: Leukemia cell; experiment: Potency index, ratio of 5-fluorouracil GI50 to compound GI50 for human leukemia cells; format: functional
PARAMETER_MEASURED: RatioGI50

COc1ccc(-n2c(SCc3cc(OC)c(OC)c(OC)c3)nc3ccc(C)cc3c2=O)c(OC)c1 | 2 - 10

Given the entry `COc1cc(CSc2nc3ccc(Cl)cc3c(=O)n2Cc2ccccc2)cc(OC)c1OC` , report its measured RatioGI50.
2 - 10

Param item: `COc1cc2nc(SCc3cc(OC)c(OC)c(OC)c3)n(Cc3ccccc3)c(=O)c2cc1OC`
2 - 10

Param item: `COc1ccccc1-n1c(SCc2cc(OC)c(OC)c(OC)c2)nc2ccc(Cl)cc2c1=O`
2 - 10

* * *

assay: Growth inhibition of human T47D cells at 10 uM after 48 hrs by SRB assay relative to control; format: functional; conditions: read-out: GI
PARAMETER_MEASURED: inhibition of growth at 10 µM
Express the reported value numerically, then name its unit.

Consider the reported inhibition of growth at 10 µM for these compounds:
COc1cc2nc(SCc3cc(OC)c(OC)c(OC)c3)n(-c3ccccc3OC)c(=O)c2cc1OC | 11.4%
COc1cc(CSc2nc3ccc(Cl)cc3c(=O)n2-c2ccccc2)cc(OC)c1OC | 29.1%
COc1ccccc1-n1c(SCc2cc(OC)c(OC)c(OC)c2)nc2ccc(Cl)cc2c1=O | 56.1%
COc1ccc(-n2c(SCc3cc(OC)c(OC)c(OC)c3)nc3ccc(C)cc3c2=O)cc1 | 32.2%
COc1cc2nc(SCc3cc(OC)c(OC)c(OC)c3)n(Cc3ccccc3)c(=O)c2cc1OC | 64.1%

Could you now consider this next compound?
Given the entry `COc1cc(CSc2nc3ccc(C)cc3c(=O)n2Cc2ccccc2)cc(OC)c1OC` , report its measured inhibition of growth at 10 µM.
65.9%

* * *

test: Growth inhibition of human ovarian cancer cells after 48 hrs by SRB assay; format: functional; details: Cancer cell lines
PARAMETER_MEASURED: TGI

Consider the reported TGI for these compounds:
COc1cc2nc(SCc3cc(OC)c(OC)c(OC)c3)n(Cc3ccccc3)c(=O)c2cc1OC | 62.7 µM
COc1cc(CSc2nc3ccc(C)cc3c(=O)n2-c2ccccc2)cc(OC)c1OC | 84.6 µM
COc1ccccc1-n1c(SCc2cc(OC)c(OC)c(OC)c2)nc2ccc(Cl)cc2c1=O | 87.9 µM
COc1ccc(-n2c(SCc3cc(OC)c(OC)c(OC)c3)nc3ccc(C)cc3c2=O)c(OC)c1 | 86.7 µM
COc1cc(CSc2nc3ccc(C)cc3c(=O)n2Cc2ccccc2)cc(OC)c1OC | 57.6 µM

Given the entry `O=c1[nH]cc(F)c(=O)[nH]1` , report its measured TGI.
> 100 µM

Param item: `COc1cc(CSc2nc3ccc(Cl)cc3c(=O)n2Cc2ccccc2)cc(OC)c1OC`
75.6 µM

* * *

experiment: Growth inhibition of human A549 cells at 10 uM after 48 hrs by SRB assay relative to control; type: functional; conditions: A549, 48 h, read-out: GI
Give yes when the value for inhibition of growth at 10 µM is at least 60%. Give no when it is less.

These recorded examples may help you get a feel for the data.
COc1ccc(CSc2nc3cc(OC)c(OC)cc3c(=O)n2-c2ccc(OC)cc2OC)cc1 | no
COc1ccc(-n2c(SCc3cc(OC)c(OC)c(OC)c3)nc3ccc(C)cc3c2=O)c(OC)c1 | yes
COc1ccc(-n2c(SCc3cc(OC)c(OC)c(OC)c3)nc3ccc(Cl)cc3c2=O)cc1 | no

Exam item: decide whether the reported inhibition of growth at 10 µM for `COc1cc2nc(SCc3cc(OC)c(OC)c(OC)c3)n(Cc3ccccc3)c(=O)c2cc1OC` is at least 60%.
yes

Param item: `COc1ccccc1-n1c(SCc2cc(OC)c(OC)c(OC)c2)nc2ccc(Cl)cc2c1=O`
yes

Param item: `COc1ccc(-n2c(SCc3cc(OC)c(OC)c(OC)c3)nc3ccc(C)cc3c2=O)cc1`
no

Param item: `COc1cc2nc(SCc3cc(OC)c(OC)c(OC)c3)n(-c3ccccc3OC)c(=O)c2cc1OC`
no

Param item: `COc1cc(CSc2nc3ccc(Cl)cc3c(=O)n2Cc2ccccc2)cc(OC)c1OC`
no

Param item: `COc1cc(CSc2nc3ccc(Cl)cc3c(=O)n2-c2ccccc2)cc(OC)c1OC`
no

Data origin: ChEMBL document CHEMBL3860041
